Test system: Klebsiella pneumoniae
Experiment: MIC, compound in combination with a second agent (broth microdilution)
Type: cell-based
Details: 1:1 (wt:wt) combination with Rifampicin; MIC = total drug concentration; strain CCUG-59348
Structures can show the parent of a compound that is named as a salt. Bridge positions count the residues as written; N and C are the ends. Square brackets hold non-standard residues; d marks the D form. Peptide text beside a SMILES is read from it. * marks the point of attachment. ξ: configuration not given here. X6 = N[C@@H](CC(=O)*)c1ccc2ccccc2c1; X18 = O=C([C@H]1CC[C@H](O)CC1)*; Thr(3ξ) = CC(O)[C@H](N)C(=O)O; Dab = NCC[C@H](N)C(=O)O; X3 = O=C([C@H]1CCCNC1)*
Parameter: MIC K. pneumoniae CCUG-59348 (micrograms/mL)
Please reply with the bare figure in micrograms/mL and do not write the unit itself.

Query: Return the recorded MIC K. pneumoniae CCUG-59348 value; entry: CC(C)C[C@@H]1NC(=O)[C@@H](Cc2ccccc2)NC(=O)[C@H](CCN)NC(=O)[C@@H](NC(=O)[C@H](CCN)NC(=O)[C@@H](NC(=O)[C@H]2CC[C@H](O)CC2)C(C)O)CCNC(=O)[C@H](C(C)O)NC(=O)[C@H](CCN)NC(=O)[C@H](CCN)NC1=O (stereo partly drawn) [Example 25] (X18-[Thr(3ξ)][Dab][Dab][Dab][dF]L[Dab][Dab][Thr(3ξ)]; lactam 3-C)
Result: 8

Query: Return the recorded MIC K. pneumoniae CCUG-59348 value; entry: CC(C)C[C@@H]1NC(=O)[C@@H](Cc2ccccc2)NC(=O)[C@H](CCN)NC(=O)[C@@H](NC(=O)[C@H](CCN)NC(=O)[C@@H](NC(=O)[C@H]2CCCNC2)[C@@H](C)O)CCNC(=O)[C@H]([C@@H](C)O)NC(=O)[C@H](CCN)NC(=O)[C@H](CCN)NC1=O [Example 37, trifluoroacetate salt] (X3-T[Dab][Dab][Dab][dF]L[Dab][Dab]T; lactam 3-C)
Result: 2

Query: Return the recorded MIC K. pneumoniae CCUG-59348 value; entry: CC(C)C[C@@H]1NC(=O)[C@@H](Cc2ccccc2)NC(=O)[C@H](CCN)NC(=O)[C@@H](NC(=O)[C@H](CCN)NC(=O)[C@@H](NC(=O)C[C@H](N)c2ccc3ccccc3c2)C(C)O)CCNC(=O)[C@H](C(C)O)NC(=O)[C@H](CCN)NC(=O)[C@H](CCN)NC1=O (stereo partly drawn) [Example 38, trifluoroacetate salt] (X6-[Thr(3ξ)][Dab][Dab][Dab][dF]L[Dab][Dab][Thr(3ξ)]; lactam 3-C)
Result: 2

###

System: Pseudomonas aeruginosa
Assay: MIC, compound in combination with a second agent (broth microdilution)
Assay type: cell-based
Settings: 1:1 (wt:wt) combination with Rifampicin; MIC = total drug concentration; strain CCUG 59626
Where a name gives a salt, the structure may show the parent alone. Bridge positions count the residues as written; N and C are the ends. Square brackets hold non-standard residues; d marks the D form. Peptide text beside a SMILES is read from it. * marks the point of attachment. ξ: configuration not given here. Thr(3ξ) = CC(O)[C@H](N)C(=O)O; Propanoyl(3-OH) = O=C(CCO)*; Dab = NCC[C@H](N)C(=O)O; Dap = NC[C@H](N)C(=O)O; X15 = O=C(C1CCNC1)*; X4 = NC1CCCC1C(=O)*
Parameter: MIC P. aeruginosa CCUG 59626
State the value, then name its unit.

Query: Return the recorded MIC P. aeruginosa CCUG 59626 value; entry: CC(C)C[C@@H]1NC(=O)[C@@H](Cc2ccccc2)NC(=O)[C@H](CCN)NC(=O)[C@@H](NC(=O)[C@H](CCN)NC(=O)[C@@H](NC(=O)C2CCNC2)C(C)O)CCNC(=O)[C@H](C(C)O)NC(=O)[C@H](CCN)NC(=O)[C@H](CCN)NC1=O (stereo partly drawn) [Example 9] (X15-[Thr(3ξ)][Dab][Dab][Dab][dF]L[Dab][Dab][Thr(3ξ)]; lactam 3-C)
Result: 0.125 micrograms/mL

Query: Return the recorded MIC P. aeruginosa CCUG 59626 value; entry: CC(C)C[C@@H]1NC(=O)[C@@H](Cc2ccccc2)NC(=O)[C@H](CCN)NC(=O)[C@@H](NC(=O)[C@H](CCN)NC(=O)[C@@H](NC(=O)CCO)C(C)O)CCNC(=O)[C@H](C(C)O)NC(=O)[C@H](CCN)NC(=O)[C@H](CCN)NC1=O (stereo partly drawn) [Example 26] ({Propanoyl(3-OH)}-[Thr(3ξ)][Dab][Dab][Dab][dF]L[Dab][Dab][Thr(3ξ)]; lactam 3-C)
Result: 0.25 micrograms/mL

Query: Return the recorded MIC P. aeruginosa CCUG 59626 value; entry: CC(C)C[C@@H]1NC(=O)[C@@H](Cc2ccccc2)NC(=O)[C@H](CCN)NC(=O)[C@@H](NC(=O)[C@H](CN)NC(=O)[C@@H](NC(=O)C2CCCC2N)C(C)O)CCNC(=O)[C@H](C(C)O)NC(=O)[C@H](CCN)NC(=O)[C@H](CCN)NC1=O (stereo partly drawn) [Example 43, TFA salt] (X4-[Thr(3ξ)][Dap][Dab][Dab][dF]L[Dab][Dab][Thr(3ξ)]; lactam 3-C)
Result: 0.125 micrograms/mL

###

System: Pseudomonas aeruginosa
Experiment: MIC, compound in combination with a second agent (broth microdilution)
Type: cell-based
Conditions: 1:1 (wt:wt) combination with Rifampicin; MIC is total drug concentration
Where a name gives a salt, the structure may show the parent alone. Bridge positions count the residues as written; N and C are the ends. Square brackets hold non-standard residues; d marks the D form. Peptide text beside a SMILES is read from it. * marks the point of attachment. ξ: configuration not given here. Acetyl(3-pyridyl) = O=C(Cc1cccnc1)*; Cyclohexylacetyl = O=C(CC1CCCCC1)*; X17 = CN1CCN(c2ccc(C(=O)*)cc2)CC1; Thr(3ξ) = CC(O)[C@H](N)C(=O)O; 4Abz = Nc1ccc(C(=O)O)cc1; Dab = NCC[C@H](N)C(=O)O; Inp = O=C(O)C1CCNCC1; Bz = O=C(c1ccccc1)*
Parameter: MIC P. aeruginosa CCUG 59626 (micrograms/mL)
Please reply with the bare figure in micrograms/mL and do not write the unit itself.

Query: Return the recorded MIC P. aeruginosa CCUG 59626 value; entry: CC(C)C[C@@H]1NC(=O)[C@@H](Cc2ccccc2)NC(=O)[C@H](CCN)NC(=O)[C@@H](NC(=O)[C@H](CCN)NC(=O)[C@@H](NC(=O)CC2CCCCC2)C(C)O)CCNC(=O)[C@H](C(C)O)NC(=O)[C@H](CCN)NC(=O)[C@H](CCN)NC1=O (some centres unmarked) [Example C4, TFA salt, reference compound] (Cyclohexylacetyl-[Thr(3ξ)][Dab][Dab][Dab][dF]L[Dab][Dab][Thr(3ξ)]; lactam 3-C)
Result: 0.25

Query: Return the recorded MIC P. aeruginosa CCUG 59626 value; entry: CC(C)C[C@@H]1NC(=O)[C@@H](Cc2ccccc2)NC(=O)[C@H](CCN)NC(=O)[C@@H](NC(=O)[C@H](CCN)NC(=O)[C@@H](NC(=O)c2ccccc2)C(C)O)CCNC(=O)[C@H](C(C)O)NC(=O)[C@H](CCN)NC(=O)[C@H](CCN)NC1=O (some centres unmarked) [Example C3, sulphate salt, reference compound] (Bz-[Thr(3ξ)][Dab][Dab][Dab][dF]L[Dab][Dab][Thr(3ξ)]; lactam 3-C)
Result: 1

Query: Return the recorded MIC P. aeruginosa CCUG 59626 value; entry: CC(C)C[C@@H]1NC(=O)[C@@H](Cc2ccccc2)NC(=O)[C@H](CCN)NC(=O)[C@@H](NC(=O)[C@H](CCN)NC(=O)[C@@H](NC(=O)c2ccc(N3CCN(C)CC3)cc2)C(C)O)CCNC(=O)[C@H](C(C)O)NC(=O)[C@H](CCN)NC(=O)[C@H](CCN)NC1=O (some centres unmarked) [Example 55] (X17-[Thr(3ξ)][Dab][Dab][Dab][dF]L[Dab][Dab][Thr(3ξ)]; lactam 3-C)
Result: 0.25

Query: Return the recorded MIC P. aeruginosa CCUG 59626 value; entry: CC(C)C[C@@H]1NC(=O)[C@@H](Cc2ccccc2)NC(=O)[C@H](CCN)NC(=O)[C@@H](NC(=O)[C@H](CCN)NC(=O)[C@@H](NC(=O)Cc2cccnc2)C(C)O)CCNC(=O)[C@H](C(C)O)NC(=O)[C@H](CCN)NC(=O)[C@H](CCN)NC1=O (some centres unmarked) [Example C5, reference compound] ({Acetyl(3-pyridyl)}-[Thr(3ξ)][Dab][Dab][Dab][dF]L[Dab][Dab][Thr(3ξ)]; lactam 3-C)
Result: 0.25

Query: Return the recorded MIC P. aeruginosa CCUG 59626 value; entry: CC(C)C[C@@H]1NC(=O)[C@@H](Cc2ccccc2)NC(=O)[C@H](CCN)NC(=O)[C@@H](NC(=O)[C@H](CCN)NC(=O)[C@@H](NC(=O)C2CCNCC2)C(C)O)CCNC(=O)[C@H](C(C)O)NC(=O)[C@H](CCN)NC(=O)[C@H](CCN)NC1=O (some centres unmarked) [Example 29] (H-[Inp][Thr(3ξ)][Dab][Dab][Dab][dF]L[Dab][Dab][Thr(3ξ)]; lactam 4-C)
Result: 0.125

Query: Return the recorded MIC P. aeruginosa CCUG 59626 value; entry: CC(C)C[C@@H]1NC(=O)[C@@H](Cc2ccccc2)NC(=O)[C@H](CCN)NC(=O)[C@@H](NC(=O)[C@H](CCN)NC(=O)[C@@H](NC(=O)c2ccc(N)cc2)C(C)O)CCNC(=O)[C@H](C(C)O)NC(=O)[C@H](CCN)NC(=O)[C@H](CCN)NC1=O (some centres unmarked) [Example 5, 4-Aminobenzoyl polymyxin B nonapeptide] (H-[4Abz][Thr(3ξ)][Dab][Dab][Dab][dF]L[Dab][Dab][Thr(3ξ)]; lactam 4-C)
Result: 0.25
